- protocol_notes: Clearance in rat at 2 mg/kg, iv and 10 mg/kg, po
- Format: ADME, organism-based
- setup_conditions: in vivo
observation_type: clearance (mL/min/kg)
Record the value in mL/min/kg, omitting the unit from your answer.

Example cases with answers are listed next.
COc1cc(C(F)(F)F)cc2c1nnc1c(C)nc(-c3ccncc3C)n12	5
COc1cc(OC)c2nnc3c(C)nc(-c4cccnc4C)n3c2c1	4
COc1cc(OC)c2nnc3c(C)nc(-c4ccncc4C)n3c2c1	13

Consider the record given below.
Reported clearance ( COc1cc(OC)c2nnc3c(C)nc(-c4cnccc4C)n3c2c1 ) = 14

###

- System: Rattus norvegicus
- protocol_notes: Antipsychotic activity in po dosed rat assessed as reduction of MK801-induced hyperactivity
- Assay type: functional
- setup_conditions: Rattus norvegicus, po; read-out: MED
Listed compounds paired with reported minimal effective dose
Record the value in mg/kg, omitting the unit from your answer.

COc1cc(OC)c2nnc3c(C)nc(-c4cnccc4C)n3c2c1	1

Consider the record given below.
Reported minimal effective dose ( COc1cc(OC)c2nnc3c(C)nc(-c4cccnc4C)n3c2c1 ) = 0.25

###

Listed compounds paired with reported Vd
- protocol_notes: Volume of distribution at steady state in rat at 2 mg/kg, iv and 10 mg/kg, po
- Type: ADME, organism-based
- setup_conditions: in vivo, read-out: Vdss
Record the value in L/kg, omitting the unit from your answer.

Example cases with answers are listed next.
COc1cc(C(F)(F)F)cc2c1nnc1c(C)nc(-c3ccncc3C)n12	1.3
COc1cc(OC)c2nnc3c(C)nc(-c4cccnc4C)n3c2c1	0.4
COc1cc(OC)c2nnc3c(C)nc(-c4cnccc4C)n3c2c1	0.5

Consider the record given below.
Reported Vd ( COc1cc(OC)c2nnc3c(C)nc(-c4ccncc4C)n3c2c1 ) = 0.4

###

- protocol_notes: AUC in rat brain at 2 mg/kg, iv and 10 mg/kg, po
- Type: ADME, organism-based
observation_type: AUC (ng·h/mL)
Record the value in ng·h/mL, omitting the unit from your answer.

COc1cc(OC)c2nnc3c(C)nc(-c4cnccc4C)n3c2c1	3000

Reported AUC ( COc1cc(C(F)(F)F)cc2c1nnc1c(C)nc(-c3ccncc3C)n12 ) = 622

Reported AUC ( COc1cc(OC)c2nnc3c(C)nc(-c4cccnc4C)n3c2c1 ) = 6590

Reported AUC ( COc1cc(OC)c2nnc3c(C)nc(-c4ccncc4C)n3c2c1 ) = 2780

###

Listed compounds paired with reported IC50
- system_tested: Phosphodiesterase 3 (Homo sapiens, UniProt Q14432+Q13370)
- protocol_notes: Inhibition of PDE3
- Type: protein assay

Example cases with answers are listed next.
COc1cc(N2CCOCC2)cc2c1nnc1c(C)nc(-c3ccncc3C)n12	> 10 µM
COc1cc(F)cc2c1nnc1c(C)nc(-c3sccc3C)n12	> 10 µM
COc1ccc2nnc3c(C)nc(-c4ccc(F)cc4C)n3c2n1	7.26 µM

Reported IC50 ( COc1cc(OC)c2nnc3c(C)nc(-c4cnccc4C)n3c2c1 ) = > 10 µM

Reported IC50 ( COc1cc(F)c2nnc3c(C)nc(-c4sccc4C)n3c2c1 ) = 2.25 µM

Reported IC50 ( COc1cc(C(F)(F)F)cc2c1nnc1c(C)nc(-c3cnccc3C)n12 ) = > 10 µM

###

- system_tested: Phosphodiesterase 3 (Homo sapiens, UniProt Q14432+Q13370)
- protocol_notes: Inhibition of PDE3
- Format: protein assay
observation_type: IC50

Example cases with answers are listed next.
COc1cccc2c1nnc1c(C)nc(-c3ccccc3C)n12	> 10 µM
COc1cc(OC)c2nnc3c(C)nc(-c4ccccc4Cl)n3c2c1	> 5 µM
COc1cc(OC)c2nnc3c(C)nc(-c4ccccc4C(F)(F)F)n3c2c1	> 1 µM
COc1cc(C(F)(F)F)cc2c1nnc1c(C)nc(-c3ccncc3C)n12	> 10 µM
COc1cc(F)c2nnc3c(C)nc(-c4ccccc4OC)n3c2c1	> 1 µM
COc1ccc2nnc3c(C)nc(-c4ccc(Cl)cc4Cl)n3c2n1	> 1 µM
COc1ccccc1-c1nc(C)c2nnc3c(OC)cc(F)cc3n12	> 10 µM
COc1ccc2nnc3c(C)nc(-c4ccccc4Cl)n3c2n1	1.24 µM

Reported IC50 ( COc1cc(F)cc2c1nnc1c(C)nc(-c3cccnc3C)n12 ) = > 10 µM

Reported IC50 ( COc1ccc2nnc3c(C)nc(-c4ccc(F)cc4Cl)n3c2n1 ) = > 1 µM

Reported IC50 ( COc1cc(N2CCOCC2)cc2c1nnc1c(C)nc(-c3ccccc3C)n12 ) = > 10 µM

Reported IC50 ( COc1cc(F)cc2c1nnc1c(C)nc(-c3ccncc3C)n12 ) = > 10 µM

Reported IC50 ( COc1cc(F)cc2c1nnc1c(C)nc(-c3cnccc3C)n12 ) = > 10 µM

Reported IC50 ( COc1cc(OC)c2nnc3c(C)nc(-c4ccccc4C)n3c2c1 ) = > 10 µM

Reported IC50 ( COc1cc(N2CCOCC2)cc2c1nnc1c(C)nc(-c3ccccc3Cl)n12 ) = > 10 µM

###

- system_tested: cAMP and cAMP-inhibited cGMP 3',5'-cyclic phosphodiesterase 10A (Homo sapiens, UniProt Q9Y233)
- Sequence (Q9Y233 whole entry): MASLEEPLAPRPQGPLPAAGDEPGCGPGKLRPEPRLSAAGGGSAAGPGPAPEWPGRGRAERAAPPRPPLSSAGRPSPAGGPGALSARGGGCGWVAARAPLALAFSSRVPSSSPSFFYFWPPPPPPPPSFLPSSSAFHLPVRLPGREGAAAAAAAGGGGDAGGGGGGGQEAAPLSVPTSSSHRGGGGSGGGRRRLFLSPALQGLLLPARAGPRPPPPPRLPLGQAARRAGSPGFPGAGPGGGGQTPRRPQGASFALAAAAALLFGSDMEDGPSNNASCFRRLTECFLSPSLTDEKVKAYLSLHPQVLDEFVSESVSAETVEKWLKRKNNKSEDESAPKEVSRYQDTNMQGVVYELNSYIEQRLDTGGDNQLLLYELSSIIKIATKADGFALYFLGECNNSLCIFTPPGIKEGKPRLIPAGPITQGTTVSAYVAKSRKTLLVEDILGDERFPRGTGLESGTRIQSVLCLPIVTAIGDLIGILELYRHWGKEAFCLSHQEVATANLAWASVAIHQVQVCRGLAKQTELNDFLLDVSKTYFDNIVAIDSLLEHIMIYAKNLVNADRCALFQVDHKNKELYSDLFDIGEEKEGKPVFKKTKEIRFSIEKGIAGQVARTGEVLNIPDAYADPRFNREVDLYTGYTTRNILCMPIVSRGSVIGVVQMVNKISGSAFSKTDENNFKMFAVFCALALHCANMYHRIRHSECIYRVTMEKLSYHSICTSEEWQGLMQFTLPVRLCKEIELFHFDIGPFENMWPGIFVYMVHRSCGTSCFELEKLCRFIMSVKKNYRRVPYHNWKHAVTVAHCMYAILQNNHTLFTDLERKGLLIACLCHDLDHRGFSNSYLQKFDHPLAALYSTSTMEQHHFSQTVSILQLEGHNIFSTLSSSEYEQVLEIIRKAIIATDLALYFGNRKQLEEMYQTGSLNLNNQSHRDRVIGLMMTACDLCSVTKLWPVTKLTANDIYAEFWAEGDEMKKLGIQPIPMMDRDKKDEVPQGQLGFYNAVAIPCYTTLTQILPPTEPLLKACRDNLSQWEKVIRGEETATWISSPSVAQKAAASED
- protocol_notes: Inhibition of human recombinant PDE10A-catalyzed cAMP hydrolysis
Listed compounds paired with reported log10(IC50)
Please note: log10 values; quantity IC50; unit nM.

Example cases with answers are listed next.
COc1ccc2nnc3c(C)nc(-c4cc(Cl)ccc4Cl)n3c2n1	1.73
COc1cc(OC)c2nnc3c(C)nc(-c4ccccc4C(F)(F)F)n3c2c1	0.53
COc1ccc2nnc3c(C)nc(-c4cc(OC(C)C)ccc4F)n3c2n1	3.39

Consider the record given below.
Reported log10(IC50) ( COc1cc(C(F)(F)F)cc2c1nnc1c(C)nc(-c3cnccc3C)n12 ) = 0.71

###

- protocol_notes: Oral bioavailability in rat at 10 mg/kg
- Assay type: ADME, organism-based
- setup_conditions: in vivo
observation_type: bioavailability (%)
Record the value in %, omitting the unit from your answer.

COc1cc(OC)c2nnc3c(C)nc(-c4cccnc4C)n3c2c1	100

Reported bioavailability ( COc1cc(OC)c2nnc3c(C)nc(-c4ccncc4C)n3c2c1 ) = 100

Reported bioavailability ( COc1cc(OC)c2nnc3c(C)nc(-c4cnccc4C)n3c2c1 ) = 100

Reported bioavailability ( COc1cc(C(F)(F)F)cc2c1nnc1c(C)nc(-c3ccncc3C)n12 ) = 53

###

- system_tested: Phosphodiesterase 4 (Homo sapiens, UniProt P27815+Q08499+Q07343+Q08493)
- protocol_notes: Inhibition of PDE4
- Type: protein assay
observation_type: IC50

Example cases with answers are listed next.
COc1ccc2nnc3c(C)nc(-c4ccccc4Cl)n3c2n1	> 10 µM
COc1cc(F)cc2c1nnc1c(C)nc(-c3cccnc3C)n12	> 10 µM
COc1ccc2nnc3c(C)nc(-c4ccccc4C)n3c2n1	> 10 µM
COc1ccc2nnc3c(C)nc(-c4ccc(F)cc4Cl)n3c2n1	> 1 µM
COc1cc(OC)c2nnc3c(C)nc(-c4cccnc4C)n3c2c1	> 10 µM

Reported IC50 ( COc1cc(F)cc2c1nnc1c(C)nc(-c3sc(C)nc3C)n12 ) = 2.46 µM

Reported IC50 ( COc1ccnc2c1nnc1c(C)nc(-c3cccnc3C)n12 ) = 6.96 µM

Reported IC50 ( COc1ccc(F)c(-c2nc(C)c3nnc4ccc(OC)nc4n23)c1 ) = 4.82 µM

Reported IC50 ( COc1ccccc1-c1nc(C)c2nnc3c(OC)cc(F)cc3n12 ) = > 10 µM

Reported IC50 ( COc1cc(C(F)(F)F)cc2c1nnc1c(C)nc(-c3cccc(F)c3C)n12 ) = > 5 µM

Reported IC50 ( COc1cc(OC)c2nnc3c(C)nc(-c4ccccc4Cl)n3c2c1 ) = 1.91 µM

###

Data export: IC50 values recorded with UniProt:O00408.
Sequence (O00408 whole entry): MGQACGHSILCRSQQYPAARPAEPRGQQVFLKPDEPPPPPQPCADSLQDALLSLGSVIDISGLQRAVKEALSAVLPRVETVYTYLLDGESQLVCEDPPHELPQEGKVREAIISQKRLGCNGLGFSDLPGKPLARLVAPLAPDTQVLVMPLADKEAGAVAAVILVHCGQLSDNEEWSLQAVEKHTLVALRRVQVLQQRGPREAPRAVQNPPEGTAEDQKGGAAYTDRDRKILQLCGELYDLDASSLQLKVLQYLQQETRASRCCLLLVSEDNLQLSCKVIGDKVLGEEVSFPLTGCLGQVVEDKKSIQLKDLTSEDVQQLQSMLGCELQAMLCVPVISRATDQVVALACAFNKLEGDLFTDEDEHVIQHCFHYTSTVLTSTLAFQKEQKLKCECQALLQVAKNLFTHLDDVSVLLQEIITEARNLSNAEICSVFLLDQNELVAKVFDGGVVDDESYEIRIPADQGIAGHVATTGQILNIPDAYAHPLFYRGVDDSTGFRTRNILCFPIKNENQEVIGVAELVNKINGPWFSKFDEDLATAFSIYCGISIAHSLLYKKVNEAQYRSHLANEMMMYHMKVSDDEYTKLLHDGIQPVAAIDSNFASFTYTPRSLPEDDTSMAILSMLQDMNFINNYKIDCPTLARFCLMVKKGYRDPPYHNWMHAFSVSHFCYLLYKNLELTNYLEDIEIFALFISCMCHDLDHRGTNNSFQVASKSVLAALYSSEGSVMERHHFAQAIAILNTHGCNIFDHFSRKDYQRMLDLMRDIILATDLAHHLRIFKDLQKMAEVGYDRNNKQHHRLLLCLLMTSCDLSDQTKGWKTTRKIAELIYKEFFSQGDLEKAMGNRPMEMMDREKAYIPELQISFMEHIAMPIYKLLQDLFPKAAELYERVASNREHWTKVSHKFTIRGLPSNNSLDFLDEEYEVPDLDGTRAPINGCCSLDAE
Record the value in nM, omitting the unit from your answer.

COc1cc(OC)c2nnc3c(C)nc(-c4ccccc4C)n3c2c1	95.9

Reported IC50 ( COc1cc(OC)c2nnc3c(C)nc(-c4ccccc4C(F)(F)F)n3c2c1 ) = 522

Reported IC50 ( COc1cc(C(F)(F)F)cc2c1nnc1c(C)nc(-c3cccc(F)c3C)n12 ) = 722

Reported IC50 ( COc1ccnc2c1nnc1c(C)nc(-c3cccnc3C)n12 ) = 974

Reported IC50 ( COc1cc(OC(F)F)cc2c1nnc1c(C)nc(-c3ccncc3C)n12 ) = 944

Reported IC50 ( COc1cc(C(F)(F)F)cc2c1nnc1c(C)nc(-c3cnccc3C)n12 ) = 864

###

- system_tested: Phosphodiesterase 4 (Homo sapiens, UniProt P27815+Q08499+Q07343+Q08493)
- protocol_notes: Inhibition of PDE4
- Type: protein assay
Listed molecules paired with reported IC50

COc1cc(OC)c2nnc3c(C)nc(-c4ccccc4C(F)(F)F)n3c2c1	> 1000 nM
COc1cc(F)cc2c1nnc1c(C)nc(-c3cccc(F)c3C)n12	> 1000 nM
COc1ccc2nnc3c(C)nc(-c4ccc(Cl)cc4Cl)n3c2n1	> 1000 nM
COc1cc(C(F)(F)F)cc2c1nnc1c(C)nc(-c3cnccc3C)n12	> 10001 nM
COc1cc(F)cc2c1nnc1c(C)nc(-c3cnccc3C)n12	> 10000 nM

Consider the record given below.
Hey, Phosphodiesterase 4 (Homo sapiens, UniProt P27815+Q08499+Q07343+Q08493) data for COc1cc(OC)c2nnc3c(C)nc(-c4cnccc4C)n3c2c1 : IC50 came out at > 10000 nM
